# System Name: aldosterone receptor (Rattus norvegicus, UniProt P22199)
# Construct: centrifuged at 105,000 g for 30 minutes, and then a supernatant was collected as a renal soluble fraction
# Sequence (P22199 whole entry): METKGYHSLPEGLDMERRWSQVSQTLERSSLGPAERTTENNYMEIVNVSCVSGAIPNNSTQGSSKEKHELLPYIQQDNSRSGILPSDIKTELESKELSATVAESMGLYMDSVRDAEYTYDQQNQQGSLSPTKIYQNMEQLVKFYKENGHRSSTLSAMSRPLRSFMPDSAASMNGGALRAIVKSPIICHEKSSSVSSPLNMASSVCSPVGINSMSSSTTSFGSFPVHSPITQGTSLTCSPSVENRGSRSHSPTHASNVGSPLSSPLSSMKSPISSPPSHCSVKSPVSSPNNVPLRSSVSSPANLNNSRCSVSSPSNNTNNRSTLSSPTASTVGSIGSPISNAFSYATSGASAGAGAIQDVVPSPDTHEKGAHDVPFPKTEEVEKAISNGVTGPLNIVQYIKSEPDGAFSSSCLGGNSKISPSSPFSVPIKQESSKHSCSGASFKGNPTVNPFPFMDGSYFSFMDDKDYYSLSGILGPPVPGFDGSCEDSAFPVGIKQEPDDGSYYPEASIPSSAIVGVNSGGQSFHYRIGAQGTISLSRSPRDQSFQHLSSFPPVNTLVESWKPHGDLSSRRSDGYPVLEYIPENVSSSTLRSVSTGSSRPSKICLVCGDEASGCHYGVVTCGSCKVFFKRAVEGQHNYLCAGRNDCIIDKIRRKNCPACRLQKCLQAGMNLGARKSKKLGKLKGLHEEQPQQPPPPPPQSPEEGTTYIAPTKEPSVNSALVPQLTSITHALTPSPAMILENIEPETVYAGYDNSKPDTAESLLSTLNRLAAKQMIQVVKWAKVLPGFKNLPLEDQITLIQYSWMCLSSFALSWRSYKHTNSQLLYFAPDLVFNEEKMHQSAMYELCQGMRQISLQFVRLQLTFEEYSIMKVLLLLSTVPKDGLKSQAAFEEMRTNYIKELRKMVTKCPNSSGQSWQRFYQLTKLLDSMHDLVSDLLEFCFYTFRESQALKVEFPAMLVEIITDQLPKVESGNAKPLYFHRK
# Test Details: Binding inhibition test for aldosterone receptor ([3H]aldosterone, rat renal soluble fraction)
# Particulars: [3H]aldosterone 2 nM, rat renal soluble fraction, in the presence of 2 μM RU-486, 4° C. about 18 hours; read-out: MR IC50
pIC50: −log10 of the molar value.
Decide by pIC50: equal to or exceeding 6 means TRUE, less means FALSE.

Worked examples, 2 molecules total:
INSERT INTO assay_data (compound_string, classification) VALUES
  ('COc1cc(NC(=O)c2ccc(-c3ccc(O)cc3C(F)(F)F)c(C)c2)ccc1S(N)(=O)=O', 'TRUE'),
  ('COc1cc(NC(=O)c2ccc(-c3ccc(F)cc3C(F)(F)F)cc2)ccc1S(N)(=O)=O', 'FALSE');

Enquiry: Determine whether measured pIC50 meets or exceeds 6 for COc1cc(NC(=O)c2ccc(-c3ccccc3C)cc2)ccc1S(N)(=O)=O
Return: FALSE

Enquiry: Dear colleague, could you confirm whether COc1cc(NC(=O)c2ccc(-c3ccccc3C(F)(F)F)c(COCCCO)c2)ccc1S(N)(=O)=O has pIC50 at or above 6?
Return: TRUE

Enquiry: Entry COc1cc(C(=O)Nc2ccc(-c3ccccc3C(F)(F)F)c(CNCC(F)F)c2)ccc1S(N)(=O)=O : is its pIC50 no less than 6?
Return: TRUE

Enquiry: State whether the measured pIC50 reaches 6, counting equality as reaching it, for COc1cc(NC(=O)c2ccc(-c3ccccc3-c3nc(C)no3)cc2)ccc1S(N)(=O)=O
Return: FALSE

Enquiry: Identify whether the reported pIC50 of the following molecule is 6 or greater: Cn1cccc1CNCc1cc(C(=O)Nc2ccc(S(C)(=O)=O)cc2)ccc1-c1ccccc1OC(F)(F)F
Return: TRUE

Enquiry: Exam item: decide whether the reported pIC50 for COc1cc(NC(=O)c2ccc(-c3ccccc3OC(F)(F)F)c(CN3CCCCC3)c2)ccc1S(N)(=O)=O is at least 6.
Return: TRUE

Enquiry: Can CCc1ccccc1-c1ccc(C(=O)Nc2ccc(S(N)(=O)=O)c(OC)c2)cc1CO be said to have pIC50 at or above 6?
Return: TRUE

Enquiry: Test whether the molecule COc1cc(NC(=O)c2ccc(-c3ccc(O)cc3C(F)(F)F)cc2)ccc1S(N)(=O)=O records pIC50 of 6 or higher.
Return: TRUE

Enquiry: Textbook exercise: given the entry CC(=O)OCc1cc(C(=O)Nc2ccc(S(C)(=O)=O)cc2)ccc1-c1ccccc1C(F)(F)F , state whether its pIC50 is greater than or equal to 6.
Return: TRUE

Enquiry: Form field: pIC50 at least 6? Entry: COc1cc(NC(=O)c2ccc(-c3ccccc3C3CCCCC3)cc2)ccc1S(N)(=O)=O
Return: TRUE

Enquiry: Is pIC50 for COc1cc(C(=O)Nc2ccc(-c3ccccc3N3CCCCC3)c(C)c2)ccc1S(N)(=O)=O at or above 6?
Return: TRUE

Enquiry: Hello, I need to know if COc1cc(NC(=O)c2ccc(-c3ccccc3C(=O)OC(C)(C)C)cc2)ccc1S(N)(=O)=O has measured pIC50 not below 6. Thanks!
Return: TRUE

Enquiry: Kindly determine if pIC50 recorded for COc1cc(NC(=O)c2ccc(-c3ccccc3OC(F)(F)C(F)F)cc2)ccc1S(N)(=O)=O is above or exactly 6.
Return: TRUE

Enquiry: // inclusive: pIC50 at least 6? input: COc1cc(NC(=O)c2ccc(-c3ccccc3C(F)(F)F)c(CN(C)C)c2)ccc1S(N)(=O)=O
Return: TRUE

Enquiry: Hi team, for COc1cc(NC(=O)c2ccc(-c3ccc(F)cc3C(F)(F)F)c(CO)c2)ccc1S(N)(=O)=O , is the recorded pIC50 at or above 6?
Return: TRUE

Enquiry: Tell me whether pIC50 is at least 6 here: COc1cc(C(=O)Nc2ccc(-c3ccccc3N3C[C@@H](C)O[C@@H](C)C3)c(C)c2)ccc1S(N)(=O)=O
Return: TRUE

Enquiry: Given the entry COc1cc(C(=O)Nc2ccc(-c3ccccc3C(F)(F)F)c(CN3CCSCC3)c2)ccc1S(N)(=O)=O , answer whether its pIC50 meets or surpasses 6.
Return: TRUE

Enquiry: Say whether COC(=O)c1ccccc1-c1ccc(C(=O)Nc2ccc(S(N)(=O)=O)c(OC)c2)cc1 shows pIC50 of 6 or more.
Return: FALSE

Enquiry: Entry COc1cc(NC(=O)c2ccc(-c3ccccc3SC)cc2)ccc1S(N)(=O)=O : is its pIC50 no less than 6?
Return: TRUE
